Tested on: Mycobacterium tuberculosis Erdman (pMV306hsp+LuxG13)
Experiment: log2 fractional inhibitory concentration at 50% inhibition (log2 FIC); higher = more antagonistic
Settings: growth medium: standard 7H9 OADC glycerol; time point: constant = terminal time point (4.2 d)
log2 fractional inhibitory concentration values by entry
Give the figure only, with no unit attached.

INSERT INTO measurements (molecule, assay_endpoint, result) VALUES
  ('COc1nc2ccc(Br)cc2cc1[C@@H](c1ccccc1)[C@@](O)(CCN(C)C)c1cccc2ccccc12 [bedaquiline] + CC(=O)NC[C@H]1CN(c2ccc(N3CCSCC3)c(F)c2)C(=O)O1 [sutezolid]', 'log2 fractional inhibitory concentration', -0.344);

Value of measured log2 fractional inhibitory concentration for the entry CC[C@@H](CO)NCCN[C@@H](CC)CO [ethambutol] + CC(=O)NC[C@H]1CN(c2ccc(N3CCSCC3)c(F)c2)C(=O)O1 [sutezolid] : 0.607

log2 fractional inhibitory concentration for NNC(=O)c1ccncc1 [isoniazid] + CC(C)=CCC/C(C)=C/CNCCNC1C2CC3CC(C2)CC1C3 [SQ109] is 0.45

So, CC(C)/N=c1\cc2n(-c3ccc(Cl)cc3)c3ccccc3nc-2cc1Nc1ccc(Cl)cc1 [clofazimine] + CC(=O)NC[C@H]1CN(c2ccc(N3CCSCC3)c(F)c2)C(=O)O1 [sutezolid] ? Its log2 fractional inhibitory concentration was -0.402

----------
Tested on: Mycobacterium tuberculosis Erdman (pMV306hsp+LuxG13)
Test: GRinf, normalised growth-rate inhibition at infinite dose (GR value (unitless, negative = killing)); higher = less potent
Conditions: growth medium: butyrate 5 mM; time point: terminal time point
Below: a set of entries, each annotated with reported GRinf.

INSERT INTO measurements (molecule, assay_endpoint, result) VALUES
  ('CC(C)/N=c1\cc2n(-c3ccc(Cl)cc3)c3ccccc3nc-2cc1Nc1ccc(Cl)cc1 [clofazimine] + CC(=O)NC[C@H]1CN(c2ccc(N3CCSCC3)c(F)c2)C(=O)O1 [sutezolid]', 'GRinf', -0.00637);

Entry NNC(=O)c1ccncc1 [isoniazid] + CC(C)=CCC/C(C)=C/CNCCNC1C2CC3CC(C2)CC1C3 [SQ109] — recorded GRinf = 0.0572

Just so you know, measured GRinf for CC(C)/N=c1\cc2n(-c3ccc(Cl)cc3)c3ccccc3nc-2cc1Nc1ccc(Cl)cc1 [clofazimine] + CC(C)=CCC/C(C)=C/CNCCNC1C2CC3CC(C2)CC1C3 [SQ109] came out at -0.111

----------
Reported log2 fractional inhibitory concentration is given for each of the following molecules.
Tested on: Mycobacterium tuberculosis Erdman (pMV306hsp+LuxG13)
Assay: log2 fractional inhibitory concentration at 50% inhibition (log2 FIC); higher = more antagonistic
Conditions: growth medium: cholesterol 0.2 mM (cholesterol-high); time point: terminal time point
API note: the answer field is a bare number with no unit suffix.

Would you please look over these solved cases?
INSERT INTO assay_data (molecule, assay_endpoint, result) VALUES
  ('COc1nc2ccc(Br)cc2cc1[C@@H](c1ccccc1)[C@@](O)(CCN(C)C)c1cccc2ccccc12 [bedaquiline] + CC(=O)NC[C@H]1CN(c2ccc(N3CCSCC3)c(F)c2)C(=O)O1 [sutezolid]', 'log2 fractional inhibitory concentration', -0.681),
  ('NNC(=O)c1ccncc1 [isoniazid] + CC(=O)NC[C@H]1CN(c2ccc(N3CCSCC3)c(F)c2)C(=O)O1 [sutezolid]', 'log2 fractional inhibitory concentration', -0.302);

# molecule NC(=O)c1cnccn1 [pyrazinamide] + CC(=O)NC[C@H]1CN(c2ccc(N3CCSCC3)c(F)c2)C(=O)O1 [sutezolid] ; its log2 fractional inhibitory concentration = -0.145

log2 fractional inhibitory concentration recorded for this molecule, CO[C@H]1/C=C/O[C@@]2(C)Oc3c(C)c(O)c4c(O)c(c(/C=N/N5CCN(C6CCCC6)CC5)c(O)c4c3C2=O)NC(=O)/C(C)=C\C=C\[C@H](C)[C@H](O)[C@@H](C)[C@@H](O)[C@@H](C)[C@H](OC(C)=O)[C@@H]1C [rifapentine] + CC(=O)NC[C@H]1CN(c2ccc(N3CCSCC3)c(F)c2)C(=O)O1 [sutezolid] , is -0.38

Lab note: measured log2 fractional inhibitory concentration of CC[C@@H](CO)NCCN[C@@H](CC)CO [ethambutol] + CC(C)=CCC/C(C)=C/CNCCNC1C2CC3CC(C2)CC1C3 [SQ109] was 0.546

----------
# Lookup of reported log2 fractional inhibitory concentration keyed by entry
System: Mycobacterium tuberculosis Erdman (pMV306hsp+LuxG13)
Test: log2 fractional inhibitory concentration at 90% inhibition (log2 FIC); higher = more antagonistic
Settings: growth medium: hypoxic dormancy (butyrate + nitrate), then recovery; time point: terminal time point

INSERT INTO assay_data (molecule, assay_endpoint, result) VALUES
  ('CO[C@H]1/C=C/O[C@@]2(C)Oc3c(C)c(O)c4c(O)c(c(/C=N/N5CCN(C)CC5)c(O)c4c3C2=O)NC(=O)/C(C)=C\C=C\[C@H](C)[C@H](O)[C@@H](C)[C@@H](O)[C@@H](C)[C@H](OC(C)=O)[C@@H]1C [rifampicin] + CC(=O)NC[C@H]1CN(c2ccc(N3CCSCC3)c(F)c2)C(=O)O1 [sutezolid]', 'log2 fractional inhibitory concentration', -0.678),
  ('CO[C@H]1/C=C/O[C@@]2(C)Oc3c(C)c(O)c4c(O)c(c(/C=N/N5CCN(C6CCCC6)CC5)c(O)c4c3C2=O)NC(=O)/C(C)=C\C=C\[C@H](C)[C@H](O)[C@@H](C)[C@@H](O)[C@@H](C)[C@H](OC(C)=O)[C@@H]1C [rifapentine] + CC(=O)NC[C@H]1CN(c2ccc(N3CCSCC3)c(F)c2)C(=O)O1 [sutezolid]', 'log2 fractional inhibitory concentration', 0.244),
  ('CC(C)/N=c1\cc2n(-c3ccc(Cl)cc3)c3ccccc3nc-2cc1Nc1ccc(Cl)cc1 [clofazimine] + CC(C)=CCC/C(C)=C/CNCCNC1C2CC3CC(C2)CC1C3 [SQ109]', 'log2 fractional inhibitory concentration', -1.63);

According to the records, this molecule CC(C)/N=c1\cc2n(-c3ccc(Cl)cc3)c3ccccc3nc-2cc1Nc1ccc(Cl)cc1 [clofazimine] + CC(=O)NC[C@H]1CN(c2ccc(N3CCSCC3)c(F)c2)C(=O)O1 [sutezolid] displays log2 fractional inhibitory concentration of -0.881

----------
Listed below: GRinf values for each entry.
System: Mycobacterium tuberculosis Erdman (pMV306hsp+LuxG13)
Experiment: GRinf, normalised growth-rate inhibition at infinite dose (GR value (unitless, negative = killing)); higher = less potent
Conditions: growth medium: valerate 0.1%; time point: terminal time point
Number, no unit, nothing else.

INSERT INTO measurements (compound, assay_target, assay_endpoint, result) VALUES
  ('NNC(=O)c1ccncc1 [isoniazid] + CC(C)=CCC/C(C)=C/CNCCNC1C2CC3CC(C2)CC1C3 [SQ109]', 'Mycobacterium tuberculosis Erdman (pMV306hsp+LuxG13)', 'GRinf', -0.0113),
  ('COc1c(N2C[C@@H]3CCCN[C@@H]3C2)c(F)cc2c(=O)c(C(=O)O)cn(C3CC3)c12 [moxifloxacin] + CC(=O)NC[C@H]1CN(c2ccc(N3CCSCC3)c(F)c2)C(=O)O1 [sutezolid]', 'Mycobacterium tuberculosis Erdman (pMV306hsp+LuxG13)', 'GRinf', -0.0149);

Consider the additional compound presented here.
Memo: NC(=O)c1cnccn1 [pyrazinamide] + CC(=O)NC[C@H]1CN(c2ccc(N3CCSCC3)c(F)c2)C(=O)O1 [sutezolid] , reported GRinf: -0.0671

----------
Tested on: Mycobacterium tuberculosis Erdman (pMV306hsp+LuxG13)
Assay: AUC25, normalised area under the dose-response curve up to IC25 (normalised AUC (unitless)); higher = more potent
Conditions: growth medium: cholesterol 0.2 mM (cholesterol-high); time point: terminal time point
Response key: met means AUC25 >= 0.08; not met means AUC25 < 0.08.

INSERT INTO assay_data (compound, assay_target, class_name) VALUES
  ('CC(C)/N=c1\cc2n(-c3ccc(Cl)cc3)c3ccccc3nc-2cc1Nc1ccc(Cl)cc1 [clofazimine] + CC(C)=CCC/C(C)=C/CNCCNC1C2CC3CC(C2)CC1C3 [SQ109]', 'Mycobacterium tuberculosis Erdman (pMV306hsp+LuxG13)', 'not met'),
  ('O=[N+]([O-])c1cn2c(n1)OC[C@@H](OCc1ccc(OC(F)(F)F)cc1)C2 [pretomanid] + CC(=O)NC[C@H]1CN(c2ccc(N3CCSCC3)c(F)c2)C(=O)O1', 'Mycobacterium tuberculosis Erdman (pMV306hsp+LuxG13)', 'met'),
  ('NNC(=O)c1ccncc1 [isoniazid] + CC(=O)NC[C@H]1CN(c2ccc(N3CCSCC3)c(F)c2)C(=O)O1 [sutezolid]', 'Mycobacterium tuberculosis Erdman (pMV306hsp+LuxG13)', 'met'),
  ('CO[C@H]1/C=C/O[C@@]2(C)Oc3c(C)c(O)c4c(O)c(c(/C=N/N5CCN(C)CC5)c(O)c4c3C2=O)NC(=O)/C(C)=C\C=C\[C@H](C)[C@H](O)[C@@H](C)[C@@H](O)[C@@H](C)[C@H](OC(C)=O)[C@@H]1C [rifampicin] + CC(C)=CCC/C(C)=C/CNCCNC1C2CC3CC(C2)CC1C3 [SQ109]', 'Mycobacterium tuberculosis Erdman (pMV306hsp+LuxG13)', 'not met');

stdin: Does the reported AUC25 for NC(=O)c1cnccn1 [pyrazinamide] + CC(=O)NC[C@H]1CN(c2ccc(N3CCSCC3)c(F)c2)C(=O)O1 [sutezolid] fall at or above the 0.08 mark?
stdout: met

stdin: Decide: is the reported value of AUC25 for CC[C@@H](CO)NCCN[C@@H](CC)CO [ethambutol] + CC(C)=CCC/C(C)=C/CNCCNC1C2CC3CC(C2)CC1C3 [SQ109] equal to or greater than 0.08?
stdout: not met

stdin: Confirm if AUC25 reported for the compound CC[C@@H](CO)NCCN[C@@H](CC)CO [ethambutol] + CC(=O)NC[C@H]1CN(c2ccc(N3CCSCC3)c(F)c2)C(=O)O1 [sutezolid] is 0.08 or above.
stdout: met

stdin: Can COc1nc2ccc(Br)cc2cc1[C@@H](c1ccccc1)[C@@](O)(CCN(C)C)c1cccc2ccccc12 [bedaquiline] + CC(=O)NC[C@H]1CN(c2ccc(N3CCSCC3)c(F)c2)C(=O)O1 [sutezolid] be said to have AUC25 at or above 0.08?
stdout: met

stdin: Dear colleague, could you confirm whether COc1nc2ccc(Br)cc2cc1[C@@H](c1ccccc1)[C@@](O)(CCN(C)C)c1cccc2ccccc12 [bedaquiline] + CC(C)=CCC/C(C)=C/CNCCNC1C2CC3CC(C2)CC1C3 [SQ109] has AUC25 at or above 0.08?
stdout: met
